Reference source: PubChem BioAssay

- EXPERIMENTAL DETAILS: blockers of RIG-like receptor reporter activation – cell-based, Sendai virus stimulus, luciferase, 10K MLSCN set, TLR/RLR signaling modifier project, primary screen (AID 602276);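 note: firefly luciferase from ISG56 promoter only with Renilla not read in this screen; 0% = Sendai virus plus DMSO and 100% = medium plus DMSO without virus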
- ASSAY CONTEXT: HEK293 RL24 IRF3 luciferase reporter, at 10 µM, hits give high values
MEASUREMENT KIND: inhibition (%)

[
  {
    "COMPOUND": "CCOC(=O)c1ccc(N(CC(=O)NC2CCCC2)C(=O)CNC(=O)c2ccco2)cc1",
    "RECORDED MEASUREMENT": 15.3
  },
  {
    "COMPOUND": "CCn1c(=O)c(C(=O)NCc2ccc(OC)cc2)c(O)c2ccccc21",
    "RECORDED MEASUREMENT": 14.7
  },
  {
    "COMPOUND": "CCOC(=O)C1CCCN(C(=O)c2sc3nc(-c4ccccc4)cn3c2C)C1 (stereo not drawn)",
    "RECORDED MEASUREMENT": -20.7
  },
  {
    "COMPOUND": "CCOC(=O)c1cnc(C(C)(C)C)[nH]c1=O",
    "RECORDED MEASUREMENT": 10.2
  },
  {
    "COMPOUND": "O=C(c1ccco1)N1CCN(C2=NS(=O)(=O)c3ccccc32)CC1",
    "RECORDED MEASUREMENT": 4.61
  },
  {
    "COMPOUND": "CN(c1ccccc1C(=O)N1CCN(c2cccc(Cl)c2)CC1)S(C)(=O)=O",
    "RECORDED MEASUREMENT": 6.88
  },
  {
    "COMPOUND": "S=C(c1cccs1)N1CCCC1",
    "RECORDED MEASUREMENT": -7.06
  },
  {
    "COMPOUND": "COCCNC(=O)C(c1ccncc1)N(C(=O)Cn1nnc2ccccc21)c1ccc(OC)cc1 (stereo not drawn)",
    "RECORDED MEASUREMENT": -0.74
  },
  {
    "COMPOUND": "CCc1nc2scc(-c3ccccc3)c2c(=O)n1N",
    "RECORDED MEASUREMENT": -8.38
  },
  {
    "COMPOUND": "Cc1nc2ccccc2c2oc(C(=O)N3CCN(C(=O)c4ccco4)CC3)cc12",
    "RECORDED MEASUREMENT": 6.87
  },
  {
    "COMPOUND": "COc1ccc(N2Cc3ccccc3C2)cc1Cl",
    "RECORDED MEASUREMENT": -31.1
  },
  {
    "COMPOUND": "C=CCn1c(Br)nc2c1c(=O)[nH]c(=O)n2C",
    "RECORDED MEASUREMENT": 15.8
  },
  {
    "COMPOUND": "O=C(Nc1ccc2c(c1)OCO2)c1ccc(CN2CCOCC2)cc1",
    "RECORDED MEASUREMENT": -25.7
  },
  {
    "COMPOUND": "Cc1ccc(C(=O)Nc2ccc3c(c2)OCO3)cc1S(=O)(=O)N1CCCC1",
    "RECORDED MEASUREMENT": 10.6
  },
  {
    "COMPOUND": "O=C(NCc1cccs1)C1CCCN(c2ncccn2)C1 (stereo not drawn)",
    "RECORDED MEASUREMENT": 12.7
  },
  {
    "COMPOUND": "O=S(=O)(NCC(c1cccnc1)N1CCN(c2ccccc2)CC1)c1cc(F)ccc1F (stereo not drawn)",
    "RECORDED MEASUREMENT": 21.7
  },
  {
    "COMPOUND": "COC(=O)c1ccccc1NS(=O)(=O)c1ccc(F)cc1",
    "RECORDED MEASUREMENT": 9.83
  },
  {
    "COMPOUND": "COC(=O)[C@H](C)NC(=O)NCc1ccc(F)cc1",
    "RECORDED MEASUREMENT": 6.37
  },
  {
    "COMPOUND": "COc1cccc(OCC(=O)Nc2ccccc2C(N)=O)c1",
    "RECORDED MEASUREMENT": -50.2
  },
  {
    "COMPOUND": "O=c1[nH]c2ccc(Br)cc2c(-c2ccccc2)c1N1CCOCC1",
    "RECORDED MEASUREMENT": -7.49
  },
  {
    "COMPOUND": "CCN(CC)c1ccc(NC(=O)CN2C(=O)CC(C)(C)S(=O)(=O)c3ccccc32)c(C)c1",
    "RECORDED MEASUREMENT": 10.9
  },
  {
    "COMPOUND": "Cc1ccc(N=Cc2ccc(O)cc2O)cc1F",
    "RECORDED MEASUREMENT": 13
  },
  {
    "COMPOUND": "COc1ccc(CCNC(=O)C2(C)CCC(=O)N2Cc2ccc3c(c2)OCO3)cc1OC (stereo not drawn)",
    "RECORDED MEASUREMENT": 8.58
  },
  {
    "COMPOUND": "COc1cc(NC2=CC(=O)CC(C)(C)C2)cc(OC)c1",
    "RECORDED MEASUREMENT": -4.89
  },
  {
    "COMPOUND": "O=C(CSc1nnnn1C1CCCCC1)N1CCc2ccccc21",
    "RECORDED MEASUREMENT": 9.99
  },
  {
    "COMPOUND": "Cc1cccc(-c2cc3nc4c(c(N5CCC6(CC5)OCCO6)n3n2)CCCC4)c1",
    "RECORDED MEASUREMENT": -1.5
  },
  {
    "COMPOUND": "COCCn1nnnc1C(c1cc2cc(OC)ccc2[nH]c1=O)N1CCC(Cc2ccccc2)CC1 (stereo not drawn)",
    "RECORDED MEASUREMENT": 14.4
  },
  {
    "COMPOUND": "Cc1ccc(C(=O)N2CCCC(c3nc4c(nnn4Cc4ccccc4)c(=O)[nH]3)C2)cc1 (stereo not drawn)",
    "RECORDED MEASUREMENT": 13.8
  },
  {
    "COMPOUND": "O=C(Nc1ccncc1)C1CCCN(S(=O)(=O)c2cccc3cccnc23)C1 (stereo not drawn)",
    "RECORDED MEASUREMENT": 40.7
  },
  {
    "COMPOUND": "Fc1ccc(Cn2nnc(-c3ccc(CN4CCOCC4)cc3)n2)cc1",
    "RECORDED MEASUREMENT": -2.6
  },
  {
    "COMPOUND": "Cc1ccc2[nH]c(=O)c(CN(CCCN3CCOCC3)C(=O)Nc3cccc(Cl)c3)cc2c1",
    "RECORDED MEASUREMENT": 13.4
  },
  {
    "COMPOUND": "COc1cc2c(cc1OC)C(c1ccc(C)o1)CC(=O)N2 (stereo not drawn)",
    "RECORDED MEASUREMENT": 11.9
  },
  {
    "COMPOUND": "Cc1ccc(N(C)C(=O)N2CCN(c3ccccn3)CC2)cc1",
    "RECORDED MEASUREMENT": 5.03
  }
]
